# Target Of Assay: recombinant human 11beta-HSD1 (Homo sapiens, UniProt P28845)
# Construct: made in house; microsomal fraction used as enzyme source
# Sequence (P28845 whole entry): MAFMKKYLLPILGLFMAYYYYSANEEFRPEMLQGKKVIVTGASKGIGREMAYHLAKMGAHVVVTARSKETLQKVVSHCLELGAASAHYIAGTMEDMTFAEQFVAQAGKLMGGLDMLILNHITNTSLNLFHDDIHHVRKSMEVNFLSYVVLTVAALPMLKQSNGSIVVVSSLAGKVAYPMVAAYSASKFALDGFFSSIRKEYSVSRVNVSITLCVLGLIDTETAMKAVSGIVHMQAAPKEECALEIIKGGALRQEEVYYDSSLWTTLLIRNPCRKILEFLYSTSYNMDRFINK
# Assay Details: In vitro inhibition of recombinant human 11beta-HSD1, microsomal Scintillation Proximity Assay (SPA)
# Format: biochemical
# Reported Conditions: microsomes from HEK 293 EBNA cells, 250 nM [3H]-cortisone, 500 μM NADPH, pH 6.5, room temperature
pIC50: −log10 of the molar value.
Property: pIC50

COc1ccc(CSc2nc(O)c(C#N)c3c2CCCC3)cc1 = 6.33

[1] COc1cccc(CSc2nc(O)c(C#N)c3c2CCCC3)c1
[2] N#Cc1ccccc1CSc1nc(O)c(C#N)c2ccc(F)cc12
## Task 1 or 2 : whose pIC50 is greater? # reply format: chosen label
## Result 2
(2: 8.84, 1: 6.34)
